conditions: in water, 308.15 K
Measurement name: solubility (mole fraction)
Keep it simple and answer with nothing but the number.

Bench note: what solubility (mole fraction) did O=c1cnc(Br)c[nH]1 show?
5.32e-05

* * *

settings: in water, 313.15 K
Measurement name: solubility (mole fraction)

Bench note: what solubility (mole fraction) did O=c1cnc(Br)c[nH]1 show?
6.69e-05

* * *

details: in isopropanol, 318.15 K
Measurement name: solubility (mole fraction)
Keep it simple and answer with nothing but the number.

Bench note: what solubility (mole fraction) did O=c1cnc(Br)c[nH]1 show?
0.0168

* * *

conditions: in ethylene glycol, 278.15 K
Measurement name: solubility (mole fraction)

Bench note: what solubility (mole fraction) did O=c1cnc(Br)c[nH]1 show?
0.00014

* * *

settings: in acetone, 298.15 K
Measurement name: solubility (mole fraction)
Keep it simple and answer with nothing but the number.

Bench note: what solubility (mole fraction) did O=c1cnc(Br)c[nH]1 show?
0.013

* * *

details: in ethylene glycol, 298.15 K
Measurement name: solubility (mole fraction)
Keep it simple and answer with nothing but the number.

Bench note: what solubility (mole fraction) did O=c1cnc(Br)c[nH]1 show?
0.000504

* * *

conditions: in isopropanol, 298.15 K
Measurement name: solubility (mole fraction)
Keep it simple and answer with nothing but the number.

Bench note: what solubility (mole fraction) did O=c1cnc(Br)c[nH]1 show?
0.00678

* * *

conditions: in methanol, 303.15 K
Measurement name: solubility (mole fraction)
Keep it simple and answer with nothing but the number.

Bench note: what solubility (mole fraction) did O=c1cnc(Br)c[nH]1 show?
0.000951

* * *

conditions: in methanol, 278.15 K
Measurement name: solubility (mole fraction)
Keep it simple and answer with nothing but the number.

Bench note: what solubility (mole fraction) did O=c1cnc(Br)c[nH]1 show?
0.000272

* * *

settings: in acetonitrile, 323.15 K
Measurement name: solubility (mole fraction)
Keep it simple and answer with nothing but the number.

Bench note: what solubility (mole fraction) did O=c1cnc(Br)c[nH]1 show?
0.0222

* * *

conditions: in isopropanol, 288.15 K
Measurement name: solubility (mole fraction)
Keep it simple and answer with nothing but the number.

Bench note: what solubility (mole fraction) did O=c1cnc(Br)c[nH]1 show?
0.00439

* * *

conditions: in ethanol, 308.15 K
Measurement name: solubility (mole fraction)
Keep it simple and answer with nothing but the number.

Bench note: what solubility (mole fraction) did O=c1cnc(Br)c[nH]1 show?
0.00303

* * *

conditions: in methanol, 313.15 K
Measurement name: solubility (mole fraction)
Keep it simple and answer with nothing but the number.

Bench note: what solubility (mole fraction) did O=c1cnc(Br)c[nH]1 show?
0.0014

* * *

settings: in isopropanol, 293.15 K
Measurement name: solubility (mole fraction)
Keep it simple and answer with nothing but the number.

Bench note: what solubility (mole fraction) did O=c1cnc(Br)c[nH]1 show?
0.00534

* * *

conditions: in acetonitrile, 288.15 K
Measurement name: solubility (mole fraction)

Bench note: what solubility (mole fraction) did O=c1cnc(Br)c[nH]1 show?
0.00625

* * *

conditions: in n-propanol, 288.15 K
Measurement name: solubility (mole fraction)
Keep it simple and answer with nothing but the number.

Bench note: what solubility (mole fraction) did O=c1cnc(Br)c[nH]1 show?
0.00579

* * *

conditions: in ethanol, 318.15 K
Measurement name: solubility (mole fraction)
Keep it simple and answer with nothing but the number.

Bench note: what solubility (mole fraction) did O=c1cnc(Br)c[nH]1 show?
0.00434

* * *

conditions: in methanol, 308.15 K
Measurement name: solubility (mole fraction)
Keep it simple and answer with nothing but the number.

Bench note: what solubility (mole fraction) did O=c1cnc(Br)c[nH]1 show?
0.00116

* * *

conditions: in isopropanol, 308.15 K
Measurement name: solubility (mole fraction)

Bench note: what solubility (mole fraction) did O=c1cnc(Br)c[nH]1 show?
0.0109

* * *

conditions: in isopropanol, 283.15 K
Measurement name: solubility (mole fraction)

Bench note: what solubility (mole fraction) did O=c1cnc(Br)c[nH]1 show?
0.00333

* * *

conditions: in water, 288.15 K
Measurement name: solubility (mole fraction)

Bench note: what solubility (mole fraction) did O=c1cnc(Br)c[nH]1 show?
1.81e-05

* * *

settings: in DMF, 298.15 K
Measurement name: solubility (mole fraction)
Keep it simple and answer with nothing but the number.

Bench note: what solubility (mole fraction) did O=c1cnc(Br)c[nH]1 show?
0.0151

* * *

conditions: in propylene glycol, 288.15 K
Measurement name: solubility (mole fraction)
Keep it simple and answer with nothing but the number.

Bench note: what solubility (mole fraction) did O=c1cnc(Br)c[nH]1 show?
0.000338

* * *

details: in propylene glycol, 298.15 K
Measurement name: solubility (mole fraction)

Bench note: what solubility (mole fraction) did O=c1cnc(Br)c[nH]1 show?
0.000589

* * *

settings: in ethylene glycol, 288.15 K
Measurement name: solubility (mole fraction)
Keep it simple and answer with nothing but the number.

Bench note: what solubility (mole fraction) did O=c1cnc(Br)c[nH]1 show?
0.000284

* * *

conditions: in ethanol, 293.15 K
Measurement name: solubility (mole fraction)
Keep it simple and answer with nothing but the number.

Bench note: what solubility (mole fraction) did O=c1cnc(Br)c[nH]1 show?
0.00166

* * *

settings: in ethanol, 288.15 K
Measurement name: solubility (mole fraction)
Keep it simple and answer with nothing but the number.

Bench note: what solubility (mole fraction) did O=c1cnc(Br)c[nH]1 show?
0.00128

* * *

settings: in ethanol, 278.15 K
Measurement name: solubility (mole fraction)
Keep it simple and answer with nothing but the number.

Bench note: what solubility (mole fraction) did O=c1cnc(Br)c[nH]1 show?
0.000696

* * *

settings: in acetone, 323.15 K
Measurement name: solubility (mole fraction)

Bench note: what solubility (mole fraction) did O=c1cnc(Br)c[nH]1 show?
0.0328

* * *

conditions: in water, 298.15 K
Measurement name: solubility (mole fraction)
Keep it simple and answer with nothing but the number.

Bench note: what solubility (mole fraction) did O=c1cnc(Br)c[nH]1 show?
3.2e-05
